Each recorded value in this set is attributed to patent US9695154B2.

// reported IC50 for each item listed
# Tested Target: recombinant human SAE enzyme (Homo sapiens, UniProt Q9UBT2)
# Sequence (Q9UBT2 whole entry): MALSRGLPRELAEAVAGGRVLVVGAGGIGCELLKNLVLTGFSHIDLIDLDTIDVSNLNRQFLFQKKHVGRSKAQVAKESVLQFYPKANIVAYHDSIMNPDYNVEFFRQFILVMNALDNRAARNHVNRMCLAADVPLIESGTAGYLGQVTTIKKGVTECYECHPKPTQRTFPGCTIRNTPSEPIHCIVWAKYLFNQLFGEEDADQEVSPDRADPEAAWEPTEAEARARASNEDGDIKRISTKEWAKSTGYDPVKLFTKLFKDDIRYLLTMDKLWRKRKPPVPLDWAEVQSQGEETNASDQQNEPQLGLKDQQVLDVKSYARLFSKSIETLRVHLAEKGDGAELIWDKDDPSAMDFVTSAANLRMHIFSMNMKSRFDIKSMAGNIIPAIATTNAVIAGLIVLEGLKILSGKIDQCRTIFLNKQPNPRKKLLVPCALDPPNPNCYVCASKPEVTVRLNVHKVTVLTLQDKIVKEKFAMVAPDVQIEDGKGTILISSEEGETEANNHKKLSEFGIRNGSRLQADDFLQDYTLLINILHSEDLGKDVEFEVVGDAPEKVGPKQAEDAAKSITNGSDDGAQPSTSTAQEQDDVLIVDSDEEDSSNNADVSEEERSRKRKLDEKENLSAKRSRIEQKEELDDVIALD
# Sequence (Q9UBE0 whole entry partner): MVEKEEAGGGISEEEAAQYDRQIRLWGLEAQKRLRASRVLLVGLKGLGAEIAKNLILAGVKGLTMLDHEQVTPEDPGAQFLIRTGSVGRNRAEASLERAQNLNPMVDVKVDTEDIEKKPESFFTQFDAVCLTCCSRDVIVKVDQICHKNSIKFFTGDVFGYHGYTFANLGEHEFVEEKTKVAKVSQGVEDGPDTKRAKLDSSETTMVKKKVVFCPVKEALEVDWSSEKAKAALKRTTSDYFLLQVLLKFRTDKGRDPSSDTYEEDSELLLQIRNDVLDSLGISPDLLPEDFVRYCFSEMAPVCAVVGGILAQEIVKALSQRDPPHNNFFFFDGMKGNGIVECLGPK
# Assay Name: SAE HTRF Enzyme Assay
# Type: biochemical
# Assay Conditions: class symbols A-C
# Procedure: The SAE enzymatic reaction totals 50 μl and contains 50 mM HEPES Hemisodium (pH 7.5), 0.05% BSA, 5 mM MgCl2, 0.5 μM ATP, 250 μM GSH, 0.01 μM Ubc9-GST, 0.125 μM Sumo-Flag and 0.11 nM recombinant human SAE enzyme. […] After incubation for 2 hours at 24° C., quantification of FRET is performed on the Pherostar™ (BMG Labtech). Percentage inhibition values at a single concentration or enzyme inhibition (IC50) values are determined from those curves. […]

>>> result("Cn1nc(Cn2ccc(C(=O)c3cncnc3N[C@@H]3C[C@H](COS(N)(=O)=O)[C@@H](O)C3)c2)cc1C(F)(F)F")
"< 10 nM"

Q: Param readout= IC50; system= recombinant human SAE enzyme (Homo sapiens, UniProt Q9UBT2); entry= NS(=O)(=O)OC[C@H]1C[C@@H](Nc2ncncc2C(=O)c2ccn(Cc3cccc(C(F)(F)F)c3)n2)[C@H](O)[C@@H]1O ; returns value.
Ans: < 10 nM

Q: What measured IC50 is associated with NS(=O)(=O)OC[C@H]1C[C@@H](Nc2ncncc2C(=O)c2ccn(Cc3sccc3Cl)n2)C[C@@H]1O on recombinant human SAE enzyme (Homo sapiens, UniProt Q9UBT2)?
Ans: < 10 nM

Q: # query: IC50 | item NS(=O)(=O)OC[C@H]1C[C@@H](Nc2ncncc2C(=O)c2ccn(Cc3ccc(F)o3)c2)[C@@H](F)[C@@H]1O | system: recombinant human SAE enzyme (Homo sapiens, UniProt Q9UBT2)
Ans: < 10 nM

Q: I'm curious: which IC50 was measured for NS(=O)(=O)OC[C@H]1C[C@@H](Nc2ncncc2C(=O)c2ccn(CCc3cccc4ccccc34)n2)[C@H](O)[C@@H]1O tested on recombinant human SAE enzyme (Homo sapiens, UniProt Q9UBT2)?
Ans: < 10 nM

Q: Which IC50 is reported with recombinant human SAE enzyme (Homo sapiens, UniProt Q9UBT2) for this entry: NS(=O)(=O)OC[C@H]1C[C@@H](Nc2ncncc2C(=O)c2ccn(Cc3cnc(C(F)(F)F)s3)c2)C[C@@H]1O ?
Ans: < 10 nM

Q: Form field: IC50 recorded for NS(=O)(=O)OC[C@H]1C[C@@H](Nc2ncncc2C(=O)c2ccn(Cc3cccc(I)c3)c2)[C@@H](F)[C@@H]1O with recombinant human SAE enzyme (Homo sapiens, UniProt Q9UBT2) (enter value)
Ans: < 10 nM

Q: Lab request: please report IC50 under test system recombinant human SAE enzyme (Homo sapiens, UniProt Q9UBT2) for NS(=O)(=O)OC[C@H]1C[C@@H](Nc2ncncc2C(=O)c2ccn(Cc3ccc(F)c(Br)c3)n2)[C@@H](F)[C@@H]1O
Ans: < 10 nM

Q: API: value(readout=IC50, system=recombinant human SAE enzyme (Homo sapiens, UniProt Q9UBT2)) for record CC#CCn1ccc(C(=O)c2cncnc2N[C@@H]2C[C@H](COS(N)(=O)=O)[C@@H](O)[C@@H]2F)c1
Ans: 10 to 100 nM

Q: // fetch recombinant human SAE enzyme (Homo sapiens, UniProt Q9UBT2) IC50 for COC(C)c1cc(C(=O)c2cncnc2N[C@@H]2C[C@H](COS(N)(=O)=O)[C@@H](O)C2)nn1Cc1cccc(Br)c1 (mixture of isomers) [Compound I-369]
Ans: < 10 nM

Q: Please tell me: IC50 of NS(=O)(=O)OC[C@H]1C[C@@H](Nc2ccncc2C(=O)c2ccn(Cc3cccc(Cl)c3)n2)[C@@H](F)[C@@H]1O , system recombinant human SAE enzyme (Homo sapiens, UniProt Q9UBT2)?
Ans: < 10 nM

Q: What value of IC50 on recombinant human SAE enzyme (Homo sapiens, UniProt Q9UBT2) does NS(=O)(=O)OC[C@H]1C[C@@H](Nc2ncncc2C(=O)c2ccn(Cc3ccccc3C(F)(F)F)n2)[C@H](O)[C@@H]1O have?
Ans: < 10 nM

Q: Look up IC50 with recombinant human SAE enzyme (Homo sapiens, UniProt Q9UBT2) for this compound: NS(=O)(=O)OC[C@H]1C[C@@H](Nc2ncncc2C(=O)c2ccn(Cc3ccccc3)n2)[C@@H](O)[C@@H]1O
Ans: 10 to 100 nM

Q: Form entry - test system: recombinant human SAE enzyme (Homo sapiens, UniProt Q9UBT2); read-out: IC50; compound: Cn1nc(C(F)(F)F)cc1Cn1ccc(C(=O)c2cncnc2N[C@@H]2C[C@H](COS(N)(=O)=O)[C@@H](O)C2)c1
Ans: 10 to 100 nM

Q: Request body: readout IC50, system recombinant human SAE enzyme (Homo sapiens, UniProt Q9UBT2), query Cc1cc(C(=O)c2cncnc2N[C@@H]2C[C@H](COS(N)(=O)=O)[C@@H](O)C2)nn1C(C)c1cccc(Cl)c1 (single isomer, unassigned) [Compound I-365] . Return the value.
Ans: 10 to 100 nM

Q: Report IC50 for NS(=O)(=O)OC[C@H]1C[C@@H](Nc2ncncc2C(=O)c2ccn(Cc3ccc(Cl)c(OC(F)(F)F)c3)n2)C[C@@H]1O tested on recombinant human SAE enzyme (Homo sapiens, UniProt Q9UBT2).
Ans: < 10 nM

Q: What is its IC50 for recombinant human SAE enzyme (Homo sapiens, UniProt Q9UBT2)? Entry: NS(=O)(=O)OC[C@H]1C[C@@H](Nc2ncncc2C(=O)c2ccn(CC3=CCCCC3)n2)C[C@@H]1O
Ans: < 10 nM
